These data points were gathered from the supplement of paper PMC12667976.

B1: library; numbered along this chain (parent)
chain: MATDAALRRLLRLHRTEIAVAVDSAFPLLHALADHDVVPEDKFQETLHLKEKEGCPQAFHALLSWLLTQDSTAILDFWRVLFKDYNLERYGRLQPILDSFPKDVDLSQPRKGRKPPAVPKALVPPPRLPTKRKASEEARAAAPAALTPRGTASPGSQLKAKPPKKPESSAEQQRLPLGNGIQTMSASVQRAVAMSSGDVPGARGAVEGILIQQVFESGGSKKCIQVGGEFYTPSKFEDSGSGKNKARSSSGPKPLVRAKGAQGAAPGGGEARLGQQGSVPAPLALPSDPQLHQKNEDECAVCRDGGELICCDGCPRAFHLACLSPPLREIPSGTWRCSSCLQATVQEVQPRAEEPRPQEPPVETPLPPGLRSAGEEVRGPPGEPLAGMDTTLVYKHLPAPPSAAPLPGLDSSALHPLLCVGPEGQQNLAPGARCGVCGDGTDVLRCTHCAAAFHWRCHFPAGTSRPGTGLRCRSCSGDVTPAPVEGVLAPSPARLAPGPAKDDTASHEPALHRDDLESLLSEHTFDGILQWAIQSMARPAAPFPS

variants of: B1; assay: AIRE transcriptional activation functional score (insulin promoter-GFP; nonsense median 0, synonymous median 1) (normalised score); higher = higher AIRE activity (more reporter activation); settings: with insulin promoter-GFP reporter in HEK293
Exercise: for every item that follows, state its recorded AIRE transcriptional activation functional score.
One number for each entry.

Reference set (6 entries):
{"Mutation Notation": "A321G", "Measured Number": 1.21}
{"Mutation Notation": "K131Y", "Measured Number": 0.0539}
{"Mutation Notation": "L158C", "Measured Number": 0.528}
{"Mutation Notation": "V348L", "Measured Number": 1.09}
{"Mutation Notation": "S332T", "Measured Number": 1.23}
{"Mutation Notation": "G204V", "Measured Number": 0.123}

Quick request: AIRE transcriptional activation functional score for each listed item, please.
1. V443L
2. E354F
3. S187M
4. L28M
5. V443D

1. 0.596
2. 1.33
3. 0.503
4. 0.175
5. 0.0282
